# Tested on: Human alphaherpesvirus 1
# procedureText: Antiviral activity against GFP-expressing HSV-1 assessed as reduction in viral growth by fluorescence assay
# Type: functional, organism-based
# pEC50 values compiled below
Please report pEC50 as the negative decimal logarithm of the molar concentration, giving only the number.

Example cases with answers are listed next.
In [3]: df
Out[3]:
                                   molecule  propertymeasured  readoutnumber
0  CC(C)OC(=O)[C@H](Cc1ccccc1)N[P@](=O)(OC[C@H]1O[C@@H](n2cnc3c(N)ncnc32)[C@@H](O)[C@@H]1O)Oc1ccccc1             pEC50           5.98
1  CC(C)C[C@H](NP(=O)(OC[C@H]1O[C@@H](n2cnc3c(N)ncnc32)[C@@H](O)[C@@H]1O)Oc1ccccc1)C(=O)OC(C)C (some centres undefined)             pEC50           5.93

// lookup pEC50 for CC(C)C[C@H](N[P@](=O)(OC[C@H]1O[C@@H](n2cnc3c(N)ncnc32)[C@@H](O)[C@@H]1O)Oc1ccccc1)C(=O)OC(C)C
6.28

Where do the numbers come from? From ChEMBL document CHEMBL5053525.
